The measurements presented in this section are drawn from patent US10160762B2.

# tgt: human PDE2A1 (Homo sapiens, UniProt O00408)
# Construct: GST; purchased BPS Bioscience (San Diego, Calif.) 60020; host or cells: insect cells
# Sequence (O00408 1-920 isoform O00408-2): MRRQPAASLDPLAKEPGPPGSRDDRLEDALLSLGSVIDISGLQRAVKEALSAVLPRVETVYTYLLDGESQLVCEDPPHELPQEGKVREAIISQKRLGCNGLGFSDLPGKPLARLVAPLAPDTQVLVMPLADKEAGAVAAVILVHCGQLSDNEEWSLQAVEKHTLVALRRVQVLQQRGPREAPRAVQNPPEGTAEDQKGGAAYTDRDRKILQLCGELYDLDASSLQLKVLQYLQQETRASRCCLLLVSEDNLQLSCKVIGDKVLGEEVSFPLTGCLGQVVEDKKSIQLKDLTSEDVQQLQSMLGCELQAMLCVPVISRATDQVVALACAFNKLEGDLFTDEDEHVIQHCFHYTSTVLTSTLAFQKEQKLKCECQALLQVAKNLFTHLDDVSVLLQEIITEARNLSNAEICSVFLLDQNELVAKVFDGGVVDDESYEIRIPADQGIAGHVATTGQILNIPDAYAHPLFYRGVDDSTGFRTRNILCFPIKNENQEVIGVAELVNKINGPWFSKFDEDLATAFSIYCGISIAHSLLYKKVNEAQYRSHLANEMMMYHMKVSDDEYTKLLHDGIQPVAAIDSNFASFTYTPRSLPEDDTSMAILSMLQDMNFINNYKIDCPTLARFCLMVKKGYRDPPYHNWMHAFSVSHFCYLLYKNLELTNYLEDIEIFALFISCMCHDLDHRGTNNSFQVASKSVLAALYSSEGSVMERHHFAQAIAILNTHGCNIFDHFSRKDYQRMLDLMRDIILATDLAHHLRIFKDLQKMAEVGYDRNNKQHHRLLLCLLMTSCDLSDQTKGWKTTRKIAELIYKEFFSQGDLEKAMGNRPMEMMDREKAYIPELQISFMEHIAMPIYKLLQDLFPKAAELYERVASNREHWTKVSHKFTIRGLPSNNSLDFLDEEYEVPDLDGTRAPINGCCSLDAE
# experiment_description: IMAP FP PDE assay, human PDE2A1
# Format: biochemical
# run_conditions: Lab B; read-out: Human PDE2 Ki (nM) Lab B
property_measured: Ki (nM)

Field: example entries. Status: answers known.
• Cc1nc2c(c(CC(F)(F)F)nn2C(c2ccc(C(F)(F)F)c(F)c2)C2(C)CC2)c(=O)[nH]1 (single isomer, unassigned) [Example 63] = 45
• Cc1nc2c(c(CO)nn2C(c2ccc(C(F)(F)F)cc2)C2CC2)c(=O)[nH]1 (stereo not drawn) = 1.6

[P] CC(c1ccc(C(F)(F)F)cc1)n1nc(CO)c2c(=O)[nH]c(C3CC3)nc21 (single isomer, unassigned) [Example 300]
[Q] COCc1nc2c(c(CO)nn2C(C)c2ccc(S(F)(F)(F)(F)F)cc2)c(=O)[nH]1 (single isomer, unassigned) [Example 317]
[R] Cc1nc2c(c(CO)nn2C(C)c2ccc(OC(F)(F)F)cc2)c(=O)[nH]1 (stereo not drawn)
Problem: Given 3 compounds, produce a descending ranking by Ki. Answer format: list of labels, ordered as asked.
Result: Q, R, P
(Q: 150 nM, R: 5.9 nM, P: 2.8 nM)

[I] Cc1nc2c(c(CO)nn2C(C)c2ccc(C(F)(F)F)cc2)c(=O)[nH]1 (single isomer, unassigned) [Example 27]
[II] Cc1nc2c(c(-c3ccco3)nn2C(C)c2ccc(C(F)(F)F)cc2)c(=O)[nH]1 (single isomer, unassigned) [Example 74]
Problem: Pick the one with the larger Ki: I vs II Pick one; state its label.
Result: II
(II: 258 nM, I: 3.4 nM)

[A] Cc1nc2c(c(CF)nn2C(c2ccc(C(F)(F)F)cc2)C(F)(F)F)c(=O)[nH]1 (stereo not drawn)
[B] COc1cccc(Cc2nc3c(c(C#N)nn3C(C)c3ccc(C(F)(F)F)cc3)c(=O)[nH]2)c1 (single isomer, unassigned) [Example 348]
Problem: Pick the one with the larger Ki: A vs B Pick one; state its label.
Result: B
(B: 4.7 nM, A: 2.6 nM)

[P] Cc1nc2c(c(CO)nn2C(C)c2ccc(C(F)(F)F)cc2)c(=O)[nH]1 (single isomer, unassigned) [Example 26]
[Q] Cc1nc2c(c(CO)nn2C(C)c2ccc3c(c2)OC(F)(F)O3)c(=O)[nH]1 (single isomer, unassigned) [Example 115]
[R] Cc1nc2c(c(CO)nn2C(C)c2c(F)cc(C(F)(F)F)cc2F)c(=O)[nH]1 (single isomer, unassigned) [Example 137]
[S] Cc1nc2c(c(CF)nn2C(C)c2ccc(C(F)(F)F)c(F)c2)c(=O)[nH]1 (stereo not drawn)
Problem: # ascending order, key=Ki Answer format: list of labels, ordered as asked.
Result: S, Q, R, P
(S: 3.6 nM, Q: 7.2 nM, R: 121 nM, P: 236 nM)
